- target or system: CDK9/cyclin T1 (Homo sapiens, UniProt P50750)
- Sequence (O60563 whole entry): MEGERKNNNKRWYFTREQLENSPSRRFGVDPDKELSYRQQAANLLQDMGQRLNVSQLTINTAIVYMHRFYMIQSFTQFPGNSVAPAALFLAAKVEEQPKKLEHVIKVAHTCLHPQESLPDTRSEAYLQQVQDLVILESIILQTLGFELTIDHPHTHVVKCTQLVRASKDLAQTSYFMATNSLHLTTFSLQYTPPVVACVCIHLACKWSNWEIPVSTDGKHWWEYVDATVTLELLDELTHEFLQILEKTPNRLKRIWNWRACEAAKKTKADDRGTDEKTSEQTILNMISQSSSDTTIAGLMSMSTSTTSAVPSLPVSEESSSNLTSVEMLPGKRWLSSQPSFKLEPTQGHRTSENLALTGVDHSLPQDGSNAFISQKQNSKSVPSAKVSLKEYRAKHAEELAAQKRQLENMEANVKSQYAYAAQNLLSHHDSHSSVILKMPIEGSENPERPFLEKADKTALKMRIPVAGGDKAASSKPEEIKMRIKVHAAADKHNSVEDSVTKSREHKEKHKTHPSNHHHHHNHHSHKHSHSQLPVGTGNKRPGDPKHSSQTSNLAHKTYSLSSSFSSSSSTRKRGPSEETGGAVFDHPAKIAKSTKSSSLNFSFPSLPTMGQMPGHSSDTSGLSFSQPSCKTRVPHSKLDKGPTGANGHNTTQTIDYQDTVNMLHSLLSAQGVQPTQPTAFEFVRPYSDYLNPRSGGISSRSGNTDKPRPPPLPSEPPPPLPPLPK
- Sequence (P50750 whole entry): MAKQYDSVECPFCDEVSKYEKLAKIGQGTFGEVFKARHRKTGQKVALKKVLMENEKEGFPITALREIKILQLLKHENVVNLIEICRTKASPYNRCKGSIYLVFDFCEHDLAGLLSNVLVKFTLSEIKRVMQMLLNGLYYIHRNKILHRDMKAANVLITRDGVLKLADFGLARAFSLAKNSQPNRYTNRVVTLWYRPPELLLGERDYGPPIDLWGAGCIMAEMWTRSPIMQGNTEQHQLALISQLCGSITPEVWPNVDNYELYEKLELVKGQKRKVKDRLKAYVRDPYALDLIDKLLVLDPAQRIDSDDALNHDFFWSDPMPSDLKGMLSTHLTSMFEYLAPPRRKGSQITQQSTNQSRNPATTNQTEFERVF
- measurement description: biochemical
- Description: Inhibition of human recombinant His6 tagged CDK9/CyclinT1 expressed in Sf21 insect cells after 40 mins by scintillation counting analysis
pKi: −log10 of the molar value.
Label yes (1) for high-side pKi (at or above 8) and no (0) for low-side pKi (below it).

Can CNc1nc(C)c(-c2ccnc(Nc3cccc(S(N)(=O)=O)c3)n2)s1 be said to have pKi at or above 8?
yes (1)

Repeat with CNc1ncc(-c2ccnc(Nc3cccc(S(N)(=O)=O)c3)n2)s1
yes (1)

Try CNc1nc(C)c(-c2nc(Nc3ccc(N4CCN(C(C)=O)CC4)cc3)ncc2C#N)s1 next.
no (0)

Entry to check: CNc1nc(C)c(-c2nc(Nc3cccc(N4CCCNCC4)c3)ncc2F)s1
yes (1)

# iterate: CNc1nc(C)c(-c2nc(Nc3cccc(S(N)(=O)=O)c3)ncc2C)s1
yes (1)

Now the molecule CNc1nc(C(F)(F)F)c(-c2ccnc(Nc3cccc(S(N)(=O)=O)c3)n2)s1
yes (1)

Then CNc1nc(C2CC2)c(-c2ccnc(Nc3cccc(N4CCCNCC4)c3)n2)s1 ?
no (0)

Query CCCc1cnc(Nc2cccc(S(N)(=O)=O)c2)nc1-c1sc(NC)nc1C next
no (0)

Then this molecule: CCc1cnc(Nc2cccc(S(N)(=O)=O)c2)nc1-c1sc(NC)nc1C
no (0)

Now give it for CNc1nc(C)c(-c2ccnc(Nc3cccc(N4CCCNCC4)c3)n2)s1 too.
no (0)

Param item: CNc1nc(C(F)(F)F)c(-c2ccnc(Nc3ccc(S(N)(=O)=O)cc3)n2)s1
yes (1)

Param item: CNc1nc(C)c(-c2nc(Nc3cccc(N4CCNCC4)c3)ncc2Cl)s1
yes (1)

Now consider CNc1nc(C)c(-c2ccnc(Nc3cccc([N+](=O)[O-])c3)n2)s1 and answer again.
yes (1)

Same read-out for CNc1nc(-c2ccccc2)c(-c2ccnc(Nc3cccc([N+](=O)[O-])c3)n2)s1 ?
no (0)

Entry CNc1nc(C)c(-c2nc(Nc3cccc(S(N)(=O)=O)c3)ncc2O)s1 please
no (0)

Continue with CNc1nc(CC(F)(F)F)c(-c2ccnc(Nc3cccc(O)c3)n2)s1
no (0)

Cool, now CNc1nc(C)c(-c2nc(Nc3cccc(N4CCNCC4)c3)ncc2C#N)s1
yes (1)

Try this molecule next: CNc1nc(CC(F)(F)F)c(-c2ccnc(Nc3cccc(S(N)(=O)=O)c3)n2)s1
no (0)

Follow-up item: CNc1nc(C)c(-c2nc(Nc3cccc(N4CCOCC4)c3)ncc2F)s1
yes (1)

CNc1nc(CC(F)(F)F)c(-c2ccnc(Nc3cccc([N+](=O)[O-])c3)n2)s1 , same question.
no (0)

Now this one: CNc1nc(C)c(-c2nc(Nc3cccc([N+](=O)[O-])c3)ncc2O)s1
no (0)

Then CNc1nc(CC(F)(F)F)c(-c2ccnc(Nc3ccc(O)cc3)n2)s1 ?
no (0)

Entry CNc1nc(C)c(-c2nc(Nc3cccc(N4CCNCC4)c3)ncc2F)s1 please
yes (1)

* * *

- target or system: Cyclin-dependent kinase 2/cyclin A (Homo sapiens, UniProt P24941)
- measurement description: biochemical
- Description: Inhibition of human recombinant His6 tagged CDK2/Cyclin A expressed in Sf21 insect cells after 40 mins by scintillation counting analysis
property: pKi
pKi is defined as minus the log10 of a concentration measured in mol/L.

Return pKi measured with Cyclin-dependent kinase 2/cyclin A (Homo sapiens, UniProt P24941) given this compound: CNc1nc(C(F)(F)F)c(-c2ccnc(Nc3ccc(S(N)(=O)=O)cc3)n2)s1
8.82

How about this compound: CNc1nc(C2CC2)c(-c2ccnc(Nc3cccc(S(N)(=O)=O)c3)n2)s1
8.70

Then this compound: CNc1nc(C)c(-c2nc(Nc3cccc(N4CCOCC4)c3)ncc2F)s1
7.70

Try CNc1nc(C)c(-c2nc(Nc3cccc(N4CCN(C(C)=O)CC4)c3)ncc2C#N)s1 next.
7.37

// next record CNc1nc(C)c(-c2nc(Nc3cccc(N4CCNCC4)c3)ncc2Cl)s1
7.35

// next record CNc1nc(C)c(-c2nc(Nc3cccc(N4CCN(C(C)=O)CC4)c3)ncc2F)s1
7.38

Also CNc1nc(CC(F)(F)F)c(-c2ccnc(Nc3cccc(O)c3)n2)s1 ?
6.55
